The measurements presented in this section are drawn from paper PMC10360169.

System: Acar19
Type: binding, great reed warbler Acrocephalus arundinaceus
Details: Table S5, half-life estimated from dissociation in scintillation proximity assay
If the reported Stability T½ (h), peptide - Acar19 equals or exceeds 0.3 h, assign 1.0. If not, assign 0.0.

> print(dat)
                 biosequence  assayedtarget  grouplabel
1  MPARLWLCL [9-mer peptide]         Acar19         1.0
2  LMNELGVPF [9-mer peptide]         Acar19         1.0
3  NYNGLLSSI [9-mer peptide]         Acar19         1.0
4  ITFHNQRDF [9-mer peptide]         Acar19         0.0
5  KDPENFDHF [9-mer peptide]         Acar19         0.0

----------
# maps each entry to its Stability T½ (h), peptide - Acar19
Test system: Acar19
Format: binding, great reed warbler Acrocephalus arundinaceus
Conditions: Table S5, half-life estimated from dissociation in scintillation proximity assay
measureName: Stability T½ (h), peptide - Acar19

> print(dat)
                 biosequence  assayedtarget  unitannotation  valuereported
1  DTFGVIDTM [9-mer peptide]         Acar19               h            0.2
2  DALLNEENL [9-mer peptide]         Acar19               h            2.0
3  ITDWLNFTL [9-mer peptide]         Acar19               h            0.1
4  STYGISEDL [9-mer peptide]         Acar19               h            0.1
5  NPSVLKILL [9-mer peptide]         Acar19               h            0.2
6  IQNATMDEF [9-mer peptide]         Acar19               h            0.1
7  DVAKIEAPL [9-mer peptide]         Acar19               h           11.4

----------
System: Acar19
Assay type: binding, great reed warbler Acrocephalus arundinaceus
Details: Table S5, half-life estimated from dissociation in scintillation proximity assay
If the reported Stability T½ (h), peptide - Acar19 equals or exceeds 0.3 h, assign fulfilled. If not, assign not fulfilled.

> print(dat)
                  biosequence     grouplabel
 1  DPNPQEVVL [9-mer peptide]      fulfilled
 2  EYAPFARLL [9-mer peptide]      fulfilled
 3  LRHSTAHLL [9-mer peptide]  not fulfilled
 4  IAASNLEQF [9-mer peptide]  not fulfilled
 5  NPLEIYQEI [9-mer peptide]      fulfilled
 6  NYMPYVFTL [9-mer peptide]      fulfilled
 7  MAMGILHTI [9-mer peptide]  not fulfilled
 8  WYAPVALLF [9-mer peptide]  not fulfilled
 9  IAKGIDAEF [9-mer peptide]  not fulfilled
10  LYIEILRLL [9-mer peptide]  not fulfilled
11  DIQKLVGKL [9-mer peptide]      fulfilled
12  AYAGLFTPL [9-mer peptide]      fulfilled
13  DTDPLPVVF [9-mer peptide]  not fulfilled
14  DFISMYFPW [9-mer peptide]      fulfilled
15  MYLRTIYDL [9-mer peptide]      fulfilled
16  WFGHLASDW [9-mer peptide]  not fulfilled
17  NTARLMAGA [9-mer peptide]  not fulfilled
18  YTYPIAHTA [9-mer peptide]  not fulfilled
19  SYLGLTQPF [9-mer peptide]  not fulfilled
20  QTSSIEGAW [9-mer peptide]  not fulfilled
21  YNAELLVAL [9-mer peptide]  not fulfilled
22  VTNRHEEKF [9-mer peptide]  not fulfilled
23  DVVPMVTQM [9-mer peptide]      fulfilled
24  EAAKNVECI [9-mer peptide]      fulfilled
25  IYYWTAWLI [9-mer peptide]  not fulfilled
26  EYARQVQMI [9-mer peptide]      fulfilled
27  MSNPLTSPI [9-mer peptide]      fulfilled
28  DTETLTTMF [9-mer peptide]  not fulfilled
29  IPNYLEIEI [9-mer peptide]      fulfilled
30  MFMMIFHFV [9-mer peptide]      fulfilled
31  QRASNVFDL [9-mer peptide]  not fulfilled
32  KASSAWHYF [9-mer peptide]  not fulfilled
33  VSFSMVGLF [9-mer peptide]  not fulfilled
34  ISDPLTSGL [9-mer peptide]  not fulfilled
35  FSPRLCRPF [9-mer peptide]      fulfilled
36  EFKQILTDF [9-mer peptide]      fulfilled
37  YYSNKVFPI [9-mer peptide]  not fulfilled
38  TNTQNNDWF [9-mer peptide]  not fulfilled
39  IASPILFPF [9-mer peptide]      fulfilled
40  HAATNFREI [9-mer peptide]  not fulfilled
41  LAASVFFTF [9-mer peptide]  not fulfilled
42  QYPAFVLFI [9-mer peptide]  not fulfilled
43  SFIPIFYQF [9-mer peptide]      fulfilled
44  NYFNRMFHF [9-mer peptide]      fulfilled
45  DPNPQEMVL [9-mer peptide]  not fulfilled
46  GYAWIDFDI [9-mer peptide]  not fulfilled
47  YRSMIAFKL [9-mer peptide]  not fulfilled
48  GFNKLRSTL [9-mer peptide]      fulfilled
49  IFDDLQGSL [9-mer peptide]  not fulfilled
50  STAPTGSWF [9-mer peptide]  not fulfilled
51  LFPELDCFF [9-mer peptide]      fulfilled
52  IPKYLEIEI [9-mer peptide]  not fulfilled

----------
System: Acar19
Type: binding, great reed warbler Acrocephalus arundinaceus
Details: Table S5, half-life estimated from dissociation in scintillation proximity assay
measureName: Stability T½ (h), peptide - Acar19

> print(dat)
                  biosequence                         measurename  unitannotation  valuereported
 1  ISASLAALF [9-mer peptide]  Stability T½ (h), peptide - Acar19               h            0.1
 2  NHIRIEYII [9-mer peptide]  Stability T½ (h), peptide - Acar19               h            0.4
 3  YTMELCGAM [9-mer peptide]  Stability T½ (h), peptide - Acar19               h            0.1
 4  NAFHHPSAV [9-mer peptide]  Stability T½ (h), peptide - Acar19               h            0.1
 5  TFMYVFSTF [9-mer peptide]  Stability T½ (h), peptide - Acar19               h            0.2
 6  SFHIIEWLF [9-mer peptide]  Stability T½ (h), peptide - Acar19               h            0.2
 7  DISPTNIPL [9-mer peptide]  Stability T½ (h), peptide - Acar19               h            0.2
 8  LYPTFYCLF [9-mer peptide]  Stability T½ (h), peptide - Acar19               h            0.4
 9  DFIANTETI [9-mer peptide]  Stability T½ (h), peptide - Acar19               h            4.7
10  DTAKAFAYL [9-mer peptide]  Stability T½ (h), peptide - Acar19               h            0.5
11  DWMERIEDF [9-mer peptide]  Stability T½ (h), peptide - Acar19               h            1.4
12  DPSGAYFAW [9-mer peptide]  Stability T½ (h), peptide - Acar19               h            0.1
13  DVSPILEAY [9-mer peptide]  Stability T½ (h), peptide - Acar19               h            0.1
14  NTDEIPELI [9-mer peptide]  Stability T½ (h), peptide - Acar19               h            0.2
15  DYLQYVLQI [9-mer peptide]  Stability T½ (h), peptide - Acar19               h            0.5
16  IAAPNMIAV [9-mer peptide]  Stability T½ (h), peptide - Acar19               h            0.1
17  IYTVIYYIF [9-mer peptide]  Stability T½ (h), peptide - Acar19               h            0.2
18  ETFRLLRSF [9-mer peptide]  Stability T½ (h), peptide - Acar19               h            0.1
19  DIKLIDIAL [9-mer peptide]  Stability T½ (h), peptide - Acar19               h            3.7
20  DWSGYSGSF [9-mer peptide]  Stability T½ (h), peptide - Acar19               h            0.3
21  DSIMLTATF [9-mer peptide]  Stability T½ (h), peptide - Acar19               h            1.5
22  NTFAAWLPM [9-mer peptide]  Stability T½ (h), peptide - Acar19               h            0.6
23  IFPSMYFLM [9-mer peptide]  Stability T½ (h), peptide - Acar19               h            0.1
24  IALPVAWLF [9-mer peptide]  Stability T½ (h), peptide - Acar19               h            0.1
25  DAVRNAAAI [9-mer peptide]  Stability T½ (h), peptide - Acar19               h            0.3
26  DAMENPLSL [9-mer peptide]  Stability T½ (h), peptide - Acar19               h            0.2
27  MYMALIAAF [9-mer peptide]  Stability T½ (h), peptide - Acar19               h            0.3
28  YYNAFHWAI [9-mer peptide]  Stability T½ (h), peptide - Acar19               h            0.4
29  TRAPAPFPL [9-mer peptide]  Stability T½ (h), peptide - Acar19               h            0.1
30  DTRAIDQFF [9-mer peptide]  Stability T½ (h), peptide - Acar19               h            2.3
